- systemTested: the molecule itself
- testProtocol: SEC; Superdex 200 10/300, 0.5 ml min^−1, 1 mg ml^−1 protein, 100 μl injected; 50 mM NaCl, 50 mM KCl, 50 mM K2HPO4 pH 7.4; 30 °C; fractions as areas under the peaks; peaks also viewed by TEM
measureName: fraction of the protein in I peak of the elution profile (%)
Please reply with the bare figure in % and do not write the unit itself.

In: Tell me the measured fraction of the protein in I peak of the elution profile of AlIbpAN11N12 (natural protein, Acholeplasma laidlawii, UniProt A9NFB2 1-137, looked up, AlIbpA of Acholeplasma laidlawii PG8 with F11F12 substituted by N11N12, complete N-terminus length kept; source: E. coli BL21(DE3), purified (Ni-NTA); not shown: His6, N-terminal, kept) MLSLLNKNRSNNDDFFEDFNVLNPVTTSNLMRTDIKETQNGYSLSVELPGFKKEDVKVSLEDGYLTIEAHTSKNSETKDQATKYIRKERYEGTMKRSYYVGNLHLDEINGTFENGMLHIELPKETKKEPEKRYLELK , please.
Out: 8

In: Tell me the measured fraction of the protein in I peak of the elution profile of AlIbpASEP (natural protein, Acholeplasma laidlawii, UniProt A9NFB2 1-137, looked up, AlIbpA of Acholeplasma laidlawii PG8 with the C-terminal LEL motif substituted by SEP (L134 to S134, L136 to P136), length of the C-terminus kept; source: E. coli BL21(DE3), purified (Ni-NTA); not shown: His6, N-terminal, kept) MLSLLNKNRSFFDDFFEDFNVLNPVTTSNLMRTDIKETQNGYSLSVELPGFKKEDVKVSLEDGYLTIEAHTSKNSETKDQATKYIRKERYEGTMKRSYYVGNLHLDEINGTFENGMLHIELPKETKKEPEKRYSEPK , please.
Out: 18
